Reported normalized growth values are given for each entry in this list.
# RUN DESCRIPTION: chemical genetic growth profiling, strain panel (AID 1159580);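 also: tested at 20 µM; growth read once vehicle control cultures reached saturation at 30 °C; 1 = growth at the plate median or of vehicle wells; lower values mean less growth of the strain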
# CONDITION LABEL: S. cerevisiae deletion strains, growth OD, locus YMR263W, strain SAP30, active compounds read low
The campaign covered roughly 5,500 compounds. About 2,000 (36%) were called active. Inconclusive results (about 18%) are left out. The list shows a part of the results.

COMPOUND | RESULT VALUE
Clc1cccc(NC2=NCCS2)c1Cl | 0.969 (inactive)
O=C(CSCc1cccc2ccccc12)NNC(=S)Nc1ccccc1Cl | 0.955 (inactive)

// lookup normalized growth for "Oc1ccc(Cl)cc1Cc1cc(Cl)ccc1O"
0.0643 (active)

Follow-up entry: C[N+]1(C)C2CC(OC(=O)C(CO)c3ccccc3)CC1C1OC12 (stereo not given)
1 (inactive)

Follow-up entry: "O=c1[nH]oc2c1CCNC2"
1.02 (inactive)

Follow-up entry: "CC[N+](CC)(CC)CCOc1cccc(OCC[N+](CC)(CC)CC)c1OCC[N+](CC)(CC)CC"
0.995 (inactive)

Follow-up entry: CCCNC1CCc2nc(N)sc2C1 (stereo not given)
1.01 (inactive)

Follow-up entry: "CC(C)(C)CC(C)(C)c1ccc(O)c(Cc2ccc(Cl)cc2Cl)c1"
0.998 (inactive)

Follow-up entry: O=S1OCC2C(CO1)C1(Cl)C(Cl)=C(Cl)C2(Cl)C1(Cl)Cl (stereo not given)
0.946 (inactive)

Follow-up entry: "Nc1ccc(N=Nc2ccc(S(N)(=O)=O)cc2)c2ccccc12"
0.916 (inactive)

###

Reported normalized growth values are given for each entry in this list.
# RUN DESCRIPTION: chemical genetic growth profiling, strain panel (AID 1159580);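 also: tested at 20 µM; growth read once vehicle control cultures reached saturation at 30 °C; 1 = growth at the plate median or of vehicle wells; lower values mean less growth of the strain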
# CONDITION LABEL: S. cerevisiae deletion strains, growth OD, locus YOR106W, strain vam3, active compounds read low
Among all 5,500 compounds or so, about 2,000 (36%) were called active. Roughly 18% stayed inconclusive and do not appear here. The list shows a part of the results.
Output: the number by itself.

Examples with answers:
MOLECULE | EXPERIMENTAL ENDPOINT | RESULT VALUE
O=C(C1CCCCC1)N1CC(=O)N2CCc3ccccc3C2C1 (stereo not drawn) | normalized growth | 1.01
O=C(O)CN1C(=O)c2cccc3cccc(c23)C1=O | normalized growth | 0.955
COc1cc(-c2coc3cc(OC)c(OC)c(OC)c3c2=O)cc(OC)c1OC | normalized growth | 0.988
COc1cc2occ(-c3ccccc3)c(=O)c2c(OC)c1C | normalized growth | 0.953
CN1C(C(=O)Nc2ccccn2)=C(O)c2ccccc2S1(=O)=O | normalized growth | 0.965
O=C(O)CN(CC(=O)O)Cc1cc2c(-c3ccccc3C(=O)O)c3cc(CN(CC(=O)O)CC(=O)O)c(=O)cc-3oc2cc1O | normalized growth | 0.773
O=C1NC(=O)C(=O)C(=O)N1 | normalized growth | 0.99
COc1ccc(-c2coc3cc(OC)cc(OC)c3c2=O)cc1 | normalized growth | 0.974
CC(C)COCC(CN(Cc1ccccc1)c1ccccc1)N1CCCC1 (stereo not drawn) | normalized growth | 1.03
CC1C[C@H]2CC(=O)[C@H]3CCCN4CCC[C@H]2[C@]34C1 (stereo partly drawn) | normalized growth | 1.02

// lookup normalized growth for "OCc1ccccc1O"
1.01

Follow-up entry: CC1OC1P(=O)(O)O (stereo not drawn)
0.986

Taken from PubChem BioAssay AID1159580.
